- ASSAY_EXPLANATION: Small animal PET imaging in Daudi xenograft bearing mice
- Assay type: in vivo
- COND: CB17 SCID, mouse, liver, iv, total radioactivity; 90 min p.i.; dynamic PET, ROI analysis, n=1 per compound; average ± SD per volume in ROI; read-out: Liver uptake in PET
Where a SMILES comes first, the peptide text is derived from it. Side-chain parts run from the residue outwards. [ ]: non-standard residue; d: D form. The star is where a group is joined. DOTA = O=C(O)CN1CCN(CC(=O)O)CCN(CC(=O)*)CCN(CC(=O)O)CC1; dTyr(3-I) = N[C@H](Cc1ccc(O)c(I)c1)C(=O)O; 2Nal = N[C@@H](Cc1ccc2ccccc2c1)C(=O)O; dNMeOrn = CN[C@H](CCCN)C(=O)O; 4Amb = NCc1ccc(C(=O)O)cc1; 4Abz = Nc1ccc(C(=O)O)cc1
MEASUREMENT_TYPE: tissue uptake per volume at 1.5 h (%ID/mL)
Respond numerically; units are %ID/mL and should not be typed.

// known answers, use as guide
* C[C@@H](NC(=O)[C@@H](CCCNC(=N)N)NC(=O)CN1CCN(CC(=O)O)CCN(CC(=O)O)CCN(CC(=O)O)CC1)C(=O)Nc1ccc(C(=O)NCCC[C@@H]2C(=O)N[C@@H](CCCNC(=N)N)C(=O)N[C@@H](Cc3ccc4ccccc4c3)C(=O)NCC(=O)N[C@H](Cc3ccc(O)c(I)c3)C(=O)N2C)cc1 [[^68Ga]DOTA-r-a-ABA-iodoCPCR4, metal not drawn] (cyclo([2Nal]G[dTyr(3-I)][dNMeOrn]([4Abz-dA-dR-DOTA])R)) | 6.1
* CN1C(=O)[C@@H](Cc2ccc(O)cc2)NC(=O)CNC(=O)[C@H](Cc2ccc3ccccc3c2)NC(=O)[C@H](CCCNC(=N)N)NC(=O)[C@H]1CCCNC(=O)c1ccc(CNC(=O)CN2CCN(CC(=O)O)CCN(CC(=O)O)CCN(CC(=O)O)CC2)cc1 [[^68Ga]PentixaFor, metal not drawn, reference compound] (cyclo([dY][dNMeOrn]([4Amb-DOTA])R[2Nal]G)) | 1.8

Give recorded tissue uptake per volume at 1.5 h. C[C@@H](NC(=O)[C@@H](CCCNC(=N)N)NC(=O)CN1CCN(CC(=O)O)CCN(CC(=O)O)CCN(CC(=O)O)CC1)C(=O)Nc1ccc(C(=O)NCCC[C@@H]2C(=O)N[C@@H](CCCNC(=N)N)C(=O)N[C@@H](Cc3ccc4ccccc4c3)C(=O)NCC(=O)N[C@H](Cc3ccc(O)cc3)C(=O)N2C)cc1 [[^68Ga]DOTA-r-a-ABA-CPCR4, metal not drawn] (cyclo([2Nal]G[dY][dNMeOrn]([4Abz-dA-dR-DOTA])R))
6
